# System: Wolbachia pipientis
# Assay comment: Anti-Wolbachia Cell-Based Screen
# Type: functional
# Parameters: scale not given: in the data most compounds retested in dose-response had high values
# Applied conditions: 5 µM
Among all 48,000 compounds or so, about 13,000 (27%) showed an effect of 50% or more. The list shows a part of the results.
Property: Percent Effect; scope: individual molecules
Reply with just the number (in %).

Some entries whose results are on file:
1) CCCNC(=O)Cn1nc(C)c2cnn(C(C)(C)C)c2c1=O ... 7.954
2) CCn1cnnc1CNC(=O)NC(c1ccccc1)C1CCCC1 (stereo unspecified) ... 9.923
3) CC(NC(=O)c1cccc(CN2CCN(C)CC2)c1)c1nccs1 (stereo unspecified) ... 12.68
4) N#CC(NC(=O)CS(=O)(=O)C1CCCC1)c1ccc(F)cc1F (stereo unspecified) ... 10.46
5) CC(C(=O)NCCN1CCCCCC1)n1cncn1 (stereo unspecified) ... 6.754
6) CCn1ccnc1CN1CCC(Oc2ccccc2F)(C(=O)O)CC1 ... -0.1414
7) CCn1nc(C)c2ccn(CC(=O)NCCN3CCCCC3)c(=O)c21 ... 109.9
8) Cn1ccnc1CN1CCN(CC(O)c2cccc(F)c2)CC1 (stereo unspecified) ... 1.006

In: Query: Percent Effect; subject: Cc1ccc(=O)n(CC2(O)CCN(Cc3c(F)cccc3F)CC2)n1
Out: 89.56

In: Same lookup for COc1ccccc1OCCCc1cc(C)nc(N)n1 , please.
Out: -105.6

In: Same lookup for CC(NC(=O)c1cccc(CN2CCN(C)CC2)c1)c1ccccn1 (stereo unspecified) , please.
Out: -0.367

In: Same lookup for CCC(NC(=O)CS(=O)(=O)C1CCCC1)c1cc(F)ccc1F (stereo unspecified) , please.
Out: -16.07

In: Same lookup for COCCNc1ncc(-c2onc(C)c2C)c(-c2ccco2)n1 , please.
Out: 94.53

In: Same lookup for O=C(O)c1csc(S(=O)(=O)N2CCCc3cc(OC(F)F)ccc32)c1 , please.
Out: -5.134

In: Same lookup for CCC(C)NC(=O)Cn1ccc2c(C)nn(CC)c2c1=O (stereo unspecified) , please.
Out: 121.4

In: Same lookup for CNC(=O)c1cccc(CCNC2CCSc3ccccc32)c1 (stereo unspecified) , please.
Out: -5.556

In: Same lookup for O=C(NCCCC(=O)N1Cc2ccccc2C1)NCc1nccs1 , please.
Out: -8.527

====

Property: Percent Effect; scope: individual compounds
# System: Wolbachia pipientis
# Assay comment: Anti-Wolbachia Cell-Based Screen
# Format: functional
# Set-up: scale not given: in the data most compounds retested in dose-response had high values
# Applied conditions: 5 µM
The campaign covered roughly 48,000 compounds. About 13,000 (27%) showed an effect of 50% or more. The list shows a part of the results.
Reply with just the number (in %).

Some entries whose results are on file:
1) CN(CCC(O)c1ccccc1)Cc1nc(-c2ccccc2)no1 (stereo not given) ... 118.9
2) CN(C)C(=O)[C@@H]1CCO[C@@H]2CCN(Cc3ccc4c(c3)OCO4)C[C@@H]21.O=C(O)C(F)(F)F ... -16.18
3) Cl.NC(=O)COc1ccc(CNCc2ccc(F)cc2F)cc1 ... -6.385
4) COc1cccc(CN(C)Cc2ccccc2C#N)c1OC ... -9.098

As a next step, examine the compound that follows.
In: Query: Percent Effect; subject: CN(C)C(=O)[C@@]12CCO[C@@H]1CCN(Cc1ccc3c(c1)OCO3)C2.O=C(O)C(F)(F)F
Out: 104.9
